biological target: Prothrombin (Homo sapiens)
Assay Endpoint: IC50

Please report the recorded IC50 for N=C(N)N1CCC(CNC(=O)[C@H](CCCCN)NC(=O)[C@H](CCCCN)NC(=O)Cc2cccc(-c3ccccc3)c2)CC1 .
> 100 µM
